Data credit: ChEMBL document CHEMBL1138497

- protocolText: Inhibition of mitochondrial glycerol 3-phosphate acyltransferase by liquid scintillation counting
readoutLabel: IC50 (µM)
Give just the number in µM; leave the unit off.

According to the records, this molecule CCCCCS(=O)(=O)Nc1cccc(CP(=O)(O)O)c1 displays IC50 of 141

According to the records, this molecule CCCCCCCCCS(=O)(=O)Nc1cccc(C(=O)O)c1 displays IC50 of 73.9

According to the records, this molecule CCCCCS(=O)(=O)Nc1ccc(CP(=O)(O)O)cc1 displays IC50 of 148

According to the records, this molecule CCCCCCCCCS(=O)(=O)Nc1ccc(Cl)cc1C(=O)O displays IC50 of 31.8

According to the records, this molecule CCCCCCCCS(=O)(=O)Nc1ccc(P(=O)(O)O)cc1 displays IC50 of 95.3

According to the records, this molecule CCCCCCCCCS(=O)(=O)Nc1ccc(C(=O)O)cc1 displays IC50 of 88.9

According to the records, this molecule CCCCCCCCCS(=O)(=O)Nc1cccc(CP(=O)(O)O)c1 displays IC50 of 62.8

According to the records, this molecule O=C(O)c1ccc(NS(=O)(=O)Cc2ccccc2)cc1 displays IC50 of 221

According to the records, this molecule O=C(O)c1ccccc1NS(=O)(=O)CCc1ccccc1 displays IC50 of 152

According to the records, this molecule CCCCCS(=O)(=O)NCc1ccccc1C(=O)O displays IC50 of 217

According to the records, this molecule CCCCCS(=O)(=O)NCc1cccc(C(=O)O)c1 displays IC50 of 310

According to the records, this molecule CCCCCCCCS(=O)(=O)Nc1ccc(F)cc1C(=O)O displays IC50 of 89

* * *

- protocolText: Inhibition of mitochondrial glycerol 3-phosphate acyltransferase by liquid scintillation counting
Exercise: for every item that follows, state its recorded IC50.
Please answer in the form of a number followed by its unit of measurement.

According to the records, this molecule CCCCCCCCS(=O)(=O)Nc1cccc(P(=O)(O)O)c1 displays IC50 of 72.4 µM

According to the records, this molecule O=C(O)c1ccc(NS(=O)(=O)c2ccccc2)cc1 displays IC50 of 151 µM

According to the records, this molecule CCCCCCCCCS(=O)(=O)Nc1ccccc1CP(=O)(O)O displays IC50 of 81.1 µM

According to the records, this molecule CCCCCCCCCS(=O)(=O)NCc1ccc(C(=O)O)cc1 displays IC50 of 129 µM

According to the records, this molecule O=C(O)c1ccccc1NS(=O)(=O)Cc1ccccc1 displays IC50 of 140 µM

According to the records, this molecule CCCCCCCCCS(=O)(=O)NCc1ccccc1C(=O)O displays IC50 of 66.5 µM

According to the records, this molecule O=C(O)c1cccc(NS(=O)(=O)Cc2ccccc2)c1 displays IC50 of 178 µM

According to the records, this molecule CCCCCCCCS(=O)(=O)Nc1ccccc1P(=O)(O)O displays IC50 of 73.6 µM

According to the records, this molecule CCCCCS(=O)(=O)Nc1ccccc1CP(=O)(O)O displays IC50 of 129 µM

According to the records, this molecule O=C(O)c1ccccc1NS(=O)(=O)c1ccc(Cl)cc1 displays IC50 of 107 µM

According to the records, this molecule CCCCCCCCS(=O)(=O)Nc1ccc(O)cc1C(=O)O displays IC50 of 116 µM

According to the records, this molecule O=C(O)c1ccc(NS(=O)(=O)c2ccc(Cl)cc2)cc1 displays IC50 of 108 µM
